# test.summary: Pharmacokinetic studies in mice after intravenous and oral administration
# Assay type: in vivo
# condition.parameters: mouse; intravenous 5 mg/kg, male CD-1 mice, plasma
Below, each entry is listed alongside its reported clearance.

compound	clearance
C[C@H]1CN(c2cc(S(=O)(=O)NC3(C)CC3)cc3c2cnn3-c2nnc(C(F)F)s2)C[C@H](C)N1 [Compound 1′, reference compound]	89.5 mL/min/kg
C[C@H]1CN(c2c(F)c(S(=O)(=O)NC3(C)CC3)cc3c2cnn3-c2nnc(C(F)(F)F)s2)C[C@H](C)N1 [Compound 4]	35.6 mL/min/kg
C[C@H]1CN(c2c(F)c(S(=O)(=O)NC3(C#N)CC3)cc3c2cnn3-c2nnc(C(F)(F)F)s2)C[C@H](C)N1 [Compound 3]	34.8 mL/min/kg
C[C@H]1CN(c2c(F)c(S(=O)(=O)NC3(C)CC3)cc3c2cnn3-c2nnc(C(F)F)s2)C[C@H](C)N1 [Compound 5]	51.6 mL/min/kg
C[C@H]1CN(c2cc(S(=O)(=O)NC3(C)CC3)cc3c2cnn3-c2nnc(C(F)(F)F)s2)C[C@H](C)N1 [Compound 1]	22.5 mL/min/kg

* * *

Below, each entry is listed alongside its reported pIC50.
# assay.system: PARG (389-976) (Homo sapiens, UniProt Q86W56)
# Construct: 5 μL of PARG (389-976) (manufactured by Chempartner Chemical Co., Ltd.); purchased Chempartner Chemical Co., Ltd
# Sequence (Q86W56 389-976): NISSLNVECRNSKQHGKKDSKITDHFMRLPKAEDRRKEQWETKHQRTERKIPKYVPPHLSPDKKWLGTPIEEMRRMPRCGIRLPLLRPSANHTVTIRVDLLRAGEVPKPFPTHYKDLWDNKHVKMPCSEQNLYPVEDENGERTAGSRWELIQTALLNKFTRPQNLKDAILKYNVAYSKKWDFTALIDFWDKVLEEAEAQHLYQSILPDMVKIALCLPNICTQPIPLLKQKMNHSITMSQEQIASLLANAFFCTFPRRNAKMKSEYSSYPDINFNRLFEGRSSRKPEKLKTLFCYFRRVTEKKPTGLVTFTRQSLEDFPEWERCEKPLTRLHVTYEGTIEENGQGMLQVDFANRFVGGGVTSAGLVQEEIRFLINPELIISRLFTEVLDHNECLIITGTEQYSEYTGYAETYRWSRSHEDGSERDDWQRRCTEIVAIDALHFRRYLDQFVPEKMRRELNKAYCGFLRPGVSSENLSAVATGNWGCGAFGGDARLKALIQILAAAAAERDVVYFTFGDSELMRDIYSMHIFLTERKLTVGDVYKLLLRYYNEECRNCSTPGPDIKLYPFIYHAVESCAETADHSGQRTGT
# test.summary: PARG enzyme inhibition assay (TR-FRET)
# Type: biochemical
# condition.parameters: numeric value, Bio PARylated His-TEV-PARP1 substrate
pIC50: −log10 of the molar value.
value.kind: pIC50

compound	value.kind	reported.value
C[C@H]1CN(c2cc(S(=O)(=O)NC3(C#N)CC3)cc3c2cnn3-c2nnc(C(F)(F)F)s2)C[C@H](C)N1 [Compound 2]	pIC50	9.21
C[C@H]1CN(c2cc(S(=O)(=O)NC3(C)CC3)cc3c2cnn3-c2nnc(C(F)(F)F)s2)C[C@H](C)N1 [Compound 1]	pIC50	9.70
C[C@H]1CN(c2cc(S(=O)(=O)NC3(C)CC3)cc3c2cnn3-c2nnc(C(F)F)s2)C[C@H](C)N1 [Compound 1′, reference compound]	pIC50	9.68

* * *

Below, each entry is listed alongside its reported Cmax.
# test.summary: Pharmacokinetic studies in mice after intravenous and oral administration
# Format: in vivo
# condition.parameters: mouse; oral administration 10 mg/kg, male CD-1 mice, plasma

compound	Cmax (µg/mL)
C[C@H]1CN(c2c(F)c(S(=O)(=O)NC3(C#N)CC3)cc3c2cnn3-c2nnc(C(F)(F)F)s2)C[C@H](C)N1 [Compound 3]	0.513
C[C@H]1CN(c2cc(S(=O)(=O)NC3(C)CC3)cc3c2cnn3-c2nnc(C(F)F)s2)C[C@H](C)N1 [Compound 1′, reference compound]	0.0988
C[C@H]1CN(c2c(F)c(S(=O)(=O)NC3(C)CC3)cc3c2cnn3-c2nnc(C(F)F)s2)C[C@H](C)N1 [Compound 5]	0.172
C[C@H]1CN(c2cc(S(=O)(=O)NC3(C)CC3)cc3c2cnn3-c2nnc(C(F)(F)F)s2)C[C@H](C)N1 [Compound 1]	0.175
C[C@H]1CN(c2c(F)c(S(=O)(=O)NC3(C)CC3)cc3c2cnn3-c2nnc(C(F)(F)F)s2)C[C@H](C)N1 [Compound 4]	0.198

Source of measurements: patent US20250154142A1
